This listing pairs variants with measured AIRE transcriptional activation functional score.
B1: library; numbered along this chain (parent)
chain: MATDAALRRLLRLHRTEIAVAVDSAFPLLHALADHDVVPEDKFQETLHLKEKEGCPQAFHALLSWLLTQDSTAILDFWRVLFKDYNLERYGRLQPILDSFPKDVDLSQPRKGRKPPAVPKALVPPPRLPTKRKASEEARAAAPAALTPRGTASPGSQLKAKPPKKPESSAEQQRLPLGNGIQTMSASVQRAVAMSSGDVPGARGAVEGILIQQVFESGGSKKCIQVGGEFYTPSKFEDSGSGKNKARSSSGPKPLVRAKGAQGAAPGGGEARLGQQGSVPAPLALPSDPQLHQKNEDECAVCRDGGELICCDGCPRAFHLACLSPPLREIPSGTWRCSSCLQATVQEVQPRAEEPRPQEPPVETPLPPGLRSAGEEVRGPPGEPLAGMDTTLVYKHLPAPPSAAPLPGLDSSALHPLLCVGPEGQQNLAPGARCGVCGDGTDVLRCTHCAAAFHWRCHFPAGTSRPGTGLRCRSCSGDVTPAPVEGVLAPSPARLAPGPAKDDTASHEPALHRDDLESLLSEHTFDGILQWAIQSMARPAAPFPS

Variants of: B1
Assay: AIRE transcriptional activation functional score (insulin promoter-GFP; nonsense median 0, synonymous median 1) (normalised score); higher = higher AIRE activity (more reporter activation)
Details: with insulin promoter-GFP reporter in HEK293

{"columns": ["mutations", "result"],
 "data": [
  ["T390N", 1.09],
  ["R247I", 0.937],
  ["T468D", 1.18],
  ["E423Y", 1.38],
  ["S241V", 0.868]
]}

Prompt line: What value of AIRE transcriptional activation functional score has been recorded for this entry: `E167A`
Response line: 0.894

Prompt line: What value of AIRE transcriptional activation functional score has been recorded for this entry: `E51S`
Response line: -0.885

Prompt line: What value of AIRE transcriptional activation functional score has been recorded for this entry: `L255S`
Response line: 0.79

Prompt line: What value of AIRE transcriptional activation functional score has been recorded for this entry: `R190T`
Response line: 0.755

Prompt line: What value of AIRE transcriptional activation functional score has been recorded for this entry: `C55Y`
Response line: 0.622

Prompt line: What value of AIRE transcriptional activation functional score has been recorded for this entry: `P400H`
Response line: 0.71

Prompt line: What value of AIRE transcriptional activation functional score has been recorded for this entry: `T68W`
Response line: -0.374

Prompt line: What value of AIRE transcriptional activation functional score has been recorded for this entry: `D84P`
Response line: 0.652

Prompt line: What value of AIRE transcriptional activation functional score has been recorded for this entry: `G333W`
Response line: 1.82

Prompt line: What value of AIRE transcriptional activation functional score has been recorded for this entry: `C314P`
Response line: 1.1
